Assay: in vivo
Conditions: male, C57BL/6, mouse, plasma, iv, 2 mg/kg

[
  {
    "substance.smiles": "Cc1ccc(NC2CNC2)cc1C(=O)N[C@H](C)c1cccc(-c2ccc(CNC3CCCC3)s2)c1",
    "unit.text": "ng/mL",
    "Cmax": 734
  }
]

====

Assay: Human plasma stability

[
  {
    "substance.smiles": "Cc1ccc(NC2CNC2)cc1C(=O)N[C@H](C)c1cccc(-c2ccc(CNC3CCCC3)s2)c1",
    "unit.text": "h",
    "half-life": 60
  }
]

====

Assay: in vivo
Conditions: male, hamster, plasma, iv, 2 mg/kg
measured.property: Cmax (ng/mL)

[
  {
    "substance.smiles": "Cc1ccc(NC2CNC2)cc1C(=O)N[C@H](C)c1cccc(-c2ccc(CNC3CCCC3)s2)c1",
    "measured.property": "Cmax",
    "unit.text": "ng/mL",
    "recorded.number": 2920
  }
]

====

Experiment: in vivo
Conditions: C57BL/6, mouse, plasma, ip, 25 mg/kg

[
  {
    "substance.smiles": "Cc1ccc(NC2CNC2)cc1C(=O)N[C@H](C)c1cccc(-c2ccc(CN[C@H]3CC[C@@H](C(=O)O)C3)s2)c1",
    "Cmax": "7910 ng/mL"
  }
]

====

Test: in vitro
Settings: human

[
  {
    "substance.smiles": "Cc1ccc(NC2CNC2)cc1C(=O)N[C@H](C)c1cccc(-c2cc(C)c(CNC3CCCC3)s2)c1",
    "CC50": "27 µM"
  },
  {
    "substance.smiles": "Cc1ccc(OC2CCNCC2)cc1C(=O)N[C@H](C)c1cccc(-c2ccc(CNC3CCCC3)s2)c1",
    "CC50": "22 µM"
  },
  {
    "substance.smiles": "Cc1ccc(NC2CNC2)cc1C(=O)N[C@H](C)c1cccc(-c2ccc(CNC3CCCC3)s2)c1",
    "CC50": "43 µM"
  }
]

====

Experiment: in vivo
Details: male, hamster, plasma, sc, 20 mg/kg

[
  {
    "compound": "Cc1ccc(NC2CNC2)cc1C(=O)N[C@H](C)c1cccc(-c2ccc(CNC3CCCC3)s2)c1 [Compound 10]",
    "unit.text": "ng/mL",
    "Cmax": 1220
  }
]
